# credit: patent US20150329558A1

Give log10(MS Rat THalf) for every item shown.
assay: Microsomal stability assay, rat; type: in vitro ADME; conditions: metabolic stability, rat liver microsomes 0.5 mg/mL, substrate 3 uM
# log10 transformed; quantity=MS Rat THalf; unit=min

Qu. Quickly give me recorded log10(MS Rat THalf) for COc1cc(OC)nc(Cn2ncc3ccc(-c4ccc(OC(F)(F)F)cc4)cc3c2=O)n1
Ans. 1.86

Qu. Quickly give me recorded log10(MS Rat THalf) for O=C1c2cc(-c3ccc(C(F)(F)F)cc3)ccc2SCN1Cc1ccccc1Cl
Ans. 1.76

Qu. Quickly give me recorded log10(MS Rat THalf) for O=c1c2cc(-c3ccc(OC(F)(F)F)cc3)ccc2cnn1CCOc1ccccn1
Ans. 1.79

Qu. Quickly give me recorded log10(MS Rat THalf) for CCOC(=O)N1CCC(=O)C(n2nnc3ccc(-c4ccc(OC(F)(F)F)cc4)cc3c2=O)C1 (centres unmarked)
Ans. 0.90

Qu. Quickly give me recorded log10(MS Rat THalf) for CC(C)(COc1ncccn1)Cn1nnc2ccc(-c3ccc(OC(F)(F)F)cc3)cc2c1=O
Ans. 1.71

Qu. Quickly give me recorded log10(MS Rat THalf) for O=c1c2cc(-c3ccc(OC(F)(F)F)cc3)ccc2cnn1CCOc1ncccn1
Ans. 2.01

Qu. Quickly give me recorded log10(MS Rat THalf) for O=c1c2cc(-c3ccc(OC(F)(F)F)cc3)ccc2cnn1Cc1cccnc1Br
Ans. 1.74

---

target: wild-type human cardiac sodium channel, hNav1.5 (late INa) (Homo sapiens, UniProt Q14524); assay: Late INa screening assay (QPatch whole cell patch clamp); format: cell-based; conditions: percent block of late INa, compound at 1 μM, 10 μM Tefluthrin, HEK293 hNav1.5; read-out: Late INa 1 μM
Sequence (Q14524 whole entry): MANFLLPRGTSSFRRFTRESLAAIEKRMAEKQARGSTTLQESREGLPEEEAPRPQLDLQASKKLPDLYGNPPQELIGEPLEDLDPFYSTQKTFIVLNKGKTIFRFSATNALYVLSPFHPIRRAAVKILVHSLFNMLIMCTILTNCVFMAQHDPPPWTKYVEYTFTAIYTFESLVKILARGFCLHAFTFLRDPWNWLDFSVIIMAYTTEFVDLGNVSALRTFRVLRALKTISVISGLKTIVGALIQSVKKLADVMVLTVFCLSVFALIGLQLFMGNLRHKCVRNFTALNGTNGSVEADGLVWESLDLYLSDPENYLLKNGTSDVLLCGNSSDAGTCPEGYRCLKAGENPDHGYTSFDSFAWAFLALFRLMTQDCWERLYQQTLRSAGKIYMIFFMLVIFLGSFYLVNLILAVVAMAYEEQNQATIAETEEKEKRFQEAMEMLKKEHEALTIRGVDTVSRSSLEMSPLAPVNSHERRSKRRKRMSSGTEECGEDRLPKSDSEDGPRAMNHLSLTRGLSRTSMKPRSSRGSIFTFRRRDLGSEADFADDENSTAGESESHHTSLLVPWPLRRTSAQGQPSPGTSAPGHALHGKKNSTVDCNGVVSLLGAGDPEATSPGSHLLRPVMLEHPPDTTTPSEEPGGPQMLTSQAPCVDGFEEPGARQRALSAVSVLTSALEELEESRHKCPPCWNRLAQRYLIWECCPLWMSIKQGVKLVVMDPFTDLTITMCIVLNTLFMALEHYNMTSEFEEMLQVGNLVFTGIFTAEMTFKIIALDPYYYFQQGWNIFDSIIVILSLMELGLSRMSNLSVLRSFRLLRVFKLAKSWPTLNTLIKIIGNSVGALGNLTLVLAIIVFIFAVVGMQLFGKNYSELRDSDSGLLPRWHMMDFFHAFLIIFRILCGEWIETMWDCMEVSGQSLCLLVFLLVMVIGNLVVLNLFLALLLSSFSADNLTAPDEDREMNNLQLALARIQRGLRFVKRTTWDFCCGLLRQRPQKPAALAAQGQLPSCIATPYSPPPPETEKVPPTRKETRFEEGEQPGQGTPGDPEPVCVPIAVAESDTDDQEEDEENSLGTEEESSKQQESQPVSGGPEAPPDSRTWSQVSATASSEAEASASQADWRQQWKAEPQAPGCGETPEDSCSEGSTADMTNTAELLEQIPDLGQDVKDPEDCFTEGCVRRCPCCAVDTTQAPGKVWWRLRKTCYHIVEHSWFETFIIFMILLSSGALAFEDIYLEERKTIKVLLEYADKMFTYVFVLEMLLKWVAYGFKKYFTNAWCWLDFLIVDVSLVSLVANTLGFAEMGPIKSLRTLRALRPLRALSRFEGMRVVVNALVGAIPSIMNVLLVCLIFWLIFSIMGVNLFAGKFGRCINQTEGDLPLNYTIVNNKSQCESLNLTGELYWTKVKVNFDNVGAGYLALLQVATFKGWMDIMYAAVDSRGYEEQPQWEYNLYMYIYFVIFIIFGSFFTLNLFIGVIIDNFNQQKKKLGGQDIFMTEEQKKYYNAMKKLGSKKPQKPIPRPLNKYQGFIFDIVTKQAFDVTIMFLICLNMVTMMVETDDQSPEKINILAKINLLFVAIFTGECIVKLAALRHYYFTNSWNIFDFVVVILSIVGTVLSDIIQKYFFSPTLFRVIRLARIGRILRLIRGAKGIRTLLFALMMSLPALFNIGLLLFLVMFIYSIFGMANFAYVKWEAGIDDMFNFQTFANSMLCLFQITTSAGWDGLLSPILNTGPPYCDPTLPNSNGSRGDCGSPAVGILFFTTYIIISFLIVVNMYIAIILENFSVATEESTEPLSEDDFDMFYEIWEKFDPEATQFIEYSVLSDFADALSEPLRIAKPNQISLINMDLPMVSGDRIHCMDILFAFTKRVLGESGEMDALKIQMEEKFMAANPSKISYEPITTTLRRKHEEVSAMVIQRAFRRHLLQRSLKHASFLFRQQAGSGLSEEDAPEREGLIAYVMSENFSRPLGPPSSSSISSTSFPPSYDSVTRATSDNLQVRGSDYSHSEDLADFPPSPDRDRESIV
Give inhibition at 1 µM for every item shown.
Numeric only. Scale: %

Qu. Quickly give me recorded inhibition at 1 µM for Cc1nccn1CC1(Cn2nnc3ccc(-c4ccc(OC(F)(F)F)cc4)cc3c2=O)CC1
Ans. 48

Qu. Quickly give me recorded inhibition at 1 µM for O=c1c2cc(-c3ccc(OC(F)(F)F)cc3)ccc2cnn1Cc1ncccn1
Ans. 44

Qu. Quickly give me recorded inhibition at 1 µM for O=c1c2cc(-c3ccc(Oc4ccc(Cl)cc4)cc3)ccc2nnn1CCn1cccn1
Ans. 52

Qu. Quickly give me recorded inhibition at 1 µM for O=c1c2cc(-c3ccc(OC(F)(F)F)cc3)ccc2cnn1Cc1ncc(Cl)cn1
Ans. 38

Qu. Quickly give me recorded inhibition at 1 µM for O=c1c2cc(-c3ccc(OC(F)(F)F)cc3)ccc2cnn1Cc1nccc(C2CC2)n1
Ans. 51

---

target: hERG potassium channel (Homo sapiens, UniProt Q12809); experiment: hERG screening assay (PatchXpress, CHO cells); format: cell-based; conditions: % inhibition at 1 μM
Sequence (Q12809 whole entry): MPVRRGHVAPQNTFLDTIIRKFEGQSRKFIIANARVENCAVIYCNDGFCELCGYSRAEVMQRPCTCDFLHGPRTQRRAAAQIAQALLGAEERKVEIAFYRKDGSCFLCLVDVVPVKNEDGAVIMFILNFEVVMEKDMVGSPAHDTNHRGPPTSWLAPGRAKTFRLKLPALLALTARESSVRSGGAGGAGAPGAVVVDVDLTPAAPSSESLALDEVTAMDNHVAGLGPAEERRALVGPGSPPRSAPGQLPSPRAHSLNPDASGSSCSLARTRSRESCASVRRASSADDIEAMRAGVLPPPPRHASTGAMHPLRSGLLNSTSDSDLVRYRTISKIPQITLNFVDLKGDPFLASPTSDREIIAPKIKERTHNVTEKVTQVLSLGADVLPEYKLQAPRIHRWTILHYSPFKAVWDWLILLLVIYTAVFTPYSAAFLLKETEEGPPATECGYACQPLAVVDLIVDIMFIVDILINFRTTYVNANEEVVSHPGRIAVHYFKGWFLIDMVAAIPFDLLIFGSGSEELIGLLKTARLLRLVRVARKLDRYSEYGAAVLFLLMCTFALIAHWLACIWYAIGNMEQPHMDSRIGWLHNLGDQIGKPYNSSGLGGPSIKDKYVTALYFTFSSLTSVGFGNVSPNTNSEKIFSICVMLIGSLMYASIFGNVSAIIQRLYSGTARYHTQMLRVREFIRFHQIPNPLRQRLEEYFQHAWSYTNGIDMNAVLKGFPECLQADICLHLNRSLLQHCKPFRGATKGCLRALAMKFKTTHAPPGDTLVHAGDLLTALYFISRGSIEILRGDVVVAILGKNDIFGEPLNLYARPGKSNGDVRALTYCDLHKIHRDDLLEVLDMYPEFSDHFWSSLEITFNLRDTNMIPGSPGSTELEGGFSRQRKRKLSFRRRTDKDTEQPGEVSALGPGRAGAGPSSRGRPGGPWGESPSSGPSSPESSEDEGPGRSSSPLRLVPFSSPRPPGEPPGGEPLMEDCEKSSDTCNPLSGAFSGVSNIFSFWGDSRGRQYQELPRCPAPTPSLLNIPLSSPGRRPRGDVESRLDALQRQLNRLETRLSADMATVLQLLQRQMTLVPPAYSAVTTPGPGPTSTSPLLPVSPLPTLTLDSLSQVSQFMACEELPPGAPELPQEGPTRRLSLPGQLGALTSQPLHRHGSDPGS
EXPERIMENTAL ENDPOINT: HERG* (%)
Numeric only. Scale: %

Qu. Quickly give me recorded HERG* for O=c1c2cc(-c3ccc(OC(F)(F)F)cc3)ccc2nnn1Cc1nnc(C2CC2)o1
Ans. 41

Qu. Quickly give me recorded HERG* for O=c1c2cc(-c3ccc(OC(F)(F)F)cc3)ccc2nnn1CCOc1ncccn1
Ans. 45

Qu. Quickly give me recorded HERG* for O=c1c2cc(-c3ccc(OC(F)(F)F)cc3)ccc2nnn1Cc1nnc(C2CC2)s1
Ans. 23
